Where do these numbers come from? They come from PubChem BioAssay.

For each entry below, report its z-score value.
Assay: compound effects on hepatocellular carcinoma cell viability – HepG2, calcein-AM fluorescence, 48 h, basal, profiling panel (AID 1164); note: test concentration not given here
Conditions: higher = more signal
One number for each entry.

Here's what some known entries look like.
CO[C@H]1O[C@H](CO)[C@@H](OC(=O)Nc2ccc(Oc3ccccc3)cc2)[C@H](OC(=O)Nc2ccc3c(c2)OCO3)[C@@H]1OC(=O)Nc1ccc2c(c1)OCO2; -0.845
C#CCN1[C@@H](Cc2ccc(O)cc2)C(=O)O[C@H](Cc2ccccc2)[C@@H]1/C=C/C1CC1; -3.44
COc1ccc(-c2cc3c(c(Cc4ccccc4)n2)[Si](C(C)C)(C(C)C)OC3)cn1; 0.147
COc1ccccc1CN1C(=O)c2ccccc2[C@@]2(Cc3ccccc3N(CCCN(C)C)C2=O)[C@@H]1c1ccc(CO)cc1; -0.655
CC(C)[Si](C#C[Si](C(C)C)(C(C)C)C(C)C)(O[C@H](C)c1cn(Cc2ccccc2)nn1)C(C)C; 0.592

Record z-score for all entries; do not skip any.
1. C#CCN(C/C=C/c1ccccc1)[C@H](CO)c1ccccc1
2. COCCOC(=O)N1C(=O)[C@@]2(c3cc(C#CC4(O)CCCCCC4)ccc31)[C@H](C(=O)Nc1nc3ccccc3s1)[C@H]1C(=O)O[C@H](c3ccccc3)[C@H](c3ccccc3)N1[C@@H]2c1ccccc1OCCO
3. Cc1ccc(/C=C/C=O)cc1

-1.76
-0.333
0.935

====

For each entry below, report its z-score value.
Test: plasmodial surface anion channel blockers, osmotic lysis – cell-based, P. falciparum Indochina, OD700, 1 h, primary screen (AID 1154)
Details: P. falciparum Indochina infected RBC osmotic lysis, higher = more signal, called active from +8 up or from −8 down
Answers are plain numbers.

CCCCCCCCCCC(O)C1C=CC2C(=O)NC(=O)C2N1Nc1ccc(Cl)cc1Cl (stereo not drawn); 4.61
CC[C@@H]1C=C(C(=O)O)[C@H](c2ccc(C)cc2)N1S(=O)(=O)c1ccc(C)cc1; 1.08

Record z-score for all entries; do not skip any.
1. COCC(=C=CC[C@H](O)c1cccc(OCCO)c1)CCO
2. COC(=O)c1c2oc(c1C(=O)OC)C(=O)N[C@@H](C(C)C)Cn1cc(nn1)C1(CCCCC1)NC(=O)N[C@H](CO)CC2
3. [N-]=[N+]=NCc1ccccc1[C@H]1OC(c2ccc(OCCCO)cc2)=N[C@@]1(Cc1ccccc1)C(=O)N1CCCCC1
4. COC(=O)[C@@]1(Cc2ccc(OC)cc2)[C@H]2c3cc(C(=O)N4CCCC4)n(CCSCCO)c3C[C@H]2CN1C(=O)c1ccccc1
5. O=C(O)[C@@]1(CCS(=O)(=O)c2ccccc2)N=C(c2ccc(OCCCO)cc2)O[C@H]1c1ccccc1
6. COCCOC(=O)N1C(=O)[C@@]2(c3cc(C#CC4(O)CCCCCC4)ccc31)[C@H](C(=O)Nc1nc3ccccc3s1)[C@H]1C(=O)O[C@H](c3ccccc3)[C@H](c3ccccc3)N1[C@@H]2c1ccccc1OCCO

1: 2.69; 2: 1.1; 3: 28.4; 4: 2.07; 5: 22.6; 6: 2.48

====

For each entry below, report its composite z-score value.
Molecular target: Epidermal growth factor receptor (Homo sapiens)
Test: compounds binding epidermal growth factor receptor – biochemical, small-molecule microarray, 635 nm fluorescence, primary screen (AID 1104);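 note: score merges 667 nm emission intensity with spot signal to noise over triplicate slides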
Details: EGFR binding, higher = more signal

COC(=O)C(CC#Cc1ccc2c(c1)[C@]1(C(=O)N2)[C@H](c2ccccc2OCCO)N2[C@H](c3ccccc3)[C@H](c3ccccc3)OC(=O)[C@H]2[C@@H]1C(=O)O)C(=O)OC; 0.28
Cc1ccc(S[C@]2(C(=O)O)CC(=O)N(Cc3ccccc3C(F)(F)F)[C@@H]2c2ccc(CO)cc2I)cc1; -1.11
CC(C)Cc1ccc(CN2CC[C@@H](N)C2)cc1; -1.06
CC(C)=CCCC(C)=CC(O)C1C=CC2C(=O)N(c3ccccc3)C(=O)C2N1Nc1ccc(C(C)C)cc1 (stereo not given); -0.0514

Record composite z-score for all entries; do not skip any.
1. O=C1C2C=CC(C(O)COCc3ccccc3)N(Nc3ccc([N+](=O)[O-])cc3)C2C(=O)N1c1ccccc1 (stereo not given)
2. COC(=O)[C@@]1(Cc2ccc(OC)cc2)[C@H]2c3cc(C(=O)N4CCCC4)n(Cc4nc5ccccc5[nH]4)c3C[C@H]2CN1C(=O)c1ccccc1
3. NC(=O)N1C(=O)C2C(C1=O)C1C=C(CCCO)C2C(C2CC2)N1Cc1cc2c(cc1Br)OCO2 (stereo not given)

1. 0.42
2. 0.206
3. -0.376

Record composite z-score for all entries; do not skip any.
1. C[N+](C)(C)CCCCCCNC(=O)[C@H]1C[C@H]2C(=O)N[C@@H](Cc3ccccc3)C(=O)N2[C@H]1c1cccc(OCCO)c1
2. CN1C(=O)C2C=CC(C(O)c3ccc(F)cc3)N(N(c3ccccc3)c3ccccc3)C2C1=O (stereo not given)
3. CCCCN1CC=CC23O[C@@H]4C=CCOC(=O)[C@@H]4[C@H]2C(=O)N(CCCCCCO)[C@@H]3C1=O (stereo not given in full)
4. COc1ccc(CCNC(=O)[C@@]2(c3ccc([N+](=O)[O-])cc3)CC(=O)N(CC34CC5CC(CC(C5)C3)C4)[C@@H]2c2ccc(CO)cc2I)cc1
5. Cc1ccc([C@H]2C(C(=O)O)=CCN2S(=O)(=O)c2ccc(C)cc2)cc1

1: 0.227; 2: -0.329; 3: -1.5; 4: 0.233; 5: -0.327
